Species on record: Rattus norvegicus
Assay: DrugMatrix - Regimen: Daily Repeat
Type: toxicity, organism-based, Sprague-Dawley
Parameters: regimen Daily Repeat, gender Male, age 6-8 weeks
Settings: in vivo, po, 0 mg/kg, 120 h, tissue Blood, route oral GAVAGE, dose level Control, time 5 day, vehicle .5 % CMC
measurement.label: HEMATOCRIT (%)

1) CCOC(=O)[C@H](CCc1ccccc1)N[C@@H](C)C(=O)N1Cc2ccccc2C[C@H]1C(=O)O
33.8
2) C[C@]12C/C(=C/O)C(=O)C[C@@H]1CC[C@@H]1[C@@H]2CC[C@@]2(C)[C@H]1CC[C@]2(C)O
45.47
3) C[C@@H](O)[C@H]1C(=O)N2C(C(=O)O)=C(S[C@@H]3CN[C@H](C(=O)N(C)C)C3)[C@H](C)[C@H]12
35.77
4) CC(C)(Sc1cc(C(C)(C)C)c(O)c(C(C)(C)C)c1)Sc1cc(C(C)(C)C)c(O)c(C(C)(C)C)c1
35.77
5) C=C(CC)C(=O)c1ccc(OCC(=O)O)c(Cl)c1Cl
40.02
6) Nc1cccc(Cl)c1
44.17
7) C[C@@H]1CC[C@H]2[C@@H](C)C(=O)O[C@@H]3O[C@@]4(C)CC[C@@H]1[C@]32OO4
33.98
8) CC[C@]1(O)CC[C@H]2[C@@H]3CCC4=CCCC[C@@H]4[C@H]3CC[C@@]21C
45.12
9) CN1C(=O)CN=C(c2ccccc2)c2cc(Cl)ccc21
35.28
10) CO[C@H]1C[C@@H]2CC[C@@H](C)[C@@](O)(O2)C(=O)C(=O)N2CCCC[C@H]2C(=O)O[C@H]([C@H](C)C[C@@H]2CC[C@@H](O)[C@H](OC)C2)CC(=O)[C@H](C)/C=C(\C)[C@@H](O)[C@@H](OC)C(=O)[C@H](C)C[C@H](C)/C=C/C=C/C=C/1C
36.1
11) Cc1cnc(C(=O)NCCc2ccc(S(=O)(=O)NC(=O)NC3CCCCC3)cc2)cn1 [GLIPIZIDE]
33.8
12) CC(C(=O)O)c1ccc(-c2ccccc2)c(F)c1 (stereo unspecified)
35.77
13) COc1ccccc1OCC(O)COC(N)=O (stereo unspecified)
33.98
14) CCCCC1C(=O)N(c2ccccc2)N(c2ccccc2)C1=O
35.3
15) COc1ccc(/C=C/C(=O)Nc2ccccc2C(=O)O)cc1OC
35.77
16) CC(=O)O[C@]1(C(C)=O)CC[C@H]2[C@@H]3C=C(Cl)C4=CC(=O)[C@@H]5C[C@@H]5[C@]4(C)[C@H]3CC[C@@]21C [CYPROTERONE ACETATE]
33.8

---

Measured NEUTROPHIL values are reported for all entries that follow.
Species on record: Rattus norvegicus
Assay: DrugMatrix - Regimen: Daily Repeat
Format: toxicity, organism-based, Sprague-Dawley
Design: regimen Daily Repeat, gender Male, age 6-8 weeks
Settings: in vivo, po, 0 mg/kg, 72 h, tissue Blood, route oral GAVAGE, dose level Control, time 3 day, vehicle .5 % CMC
measurement.label: NEUTROPHIL (%)

1. CC(=O)O[C@]1(C(C)=O)CC[C@H]2[C@@H]3C=C(Cl)C4=CC(=O)[C@@H]5C[C@@H]5[C@]4(C)[C@H]3CC[C@@]21C [CYPROTERONE ACETATE]
8.83
2. C[C@]12C/C(=C/O)C(=O)C[C@@H]1CC[C@@H]1[C@@H]2CC[C@@]2(C)[C@H]1CC[C@]2(C)O
11.16
3. CO[C@H]1C[C@@H]2CC[C@@H](C)[C@@](O)(O2)C(=O)C(=O)N2CCCC[C@H]2C(=O)O[C@H]([C@H](C)C[C@@H]2CC[C@@H](O)[C@H](OC)C2)CC(=O)[C@H](C)/C=C(\C)[C@@H](O)[C@@H](OC)C(=O)[C@H](C)C[C@H](C)/C=C/C=C/C=C/1C
8.5
4. CC(C(=O)O)c1ccc(-c2ccccc2)c(F)c1 (stereo not drawn)
9.33
5. CCCCC1C(=O)N(c2ccccc2)N(c2ccccc2)C1=O
7.33
6. CC(C)(Sc1cc(C(C)(C)C)c(O)c(C(C)(C)C)c1)Sc1cc(C(C)(C)C)c(O)c(C(C)(C)C)c1
9.33
7. Cc1cnc(C(=O)NCCc2ccc(S(=O)(=O)NC(=O)NC3CCCCC3)cc2)cn1 [GLIPIZIDE]
8.83
8. COc1ccccc1OCC(O)COC(N)=O (stereo not drawn)
7.67
9. CC[C@]1(O)CC[C@H]2[C@@H]3CCC4=CCCC[C@@H]4[C@H]3CC[C@@]21C
19
10. COc1ccc(/C=C/C(=O)Nc2ccccc2C(=O)O)cc1OC
9.33
11. Nc1cccc(Cl)c1
9.1
12. CCOC(=O)[C@H](CCc1ccccc1)N[C@@H](C)C(=O)N1Cc2ccccc2C[C@H]1C(=O)O
8.83
13. C=C(CC)C(=O)c1ccc(OCC(=O)O)c(Cl)c1Cl
13.8
14. Clc1cc2c(cc1Cl)Oc1cc(Cl)c(Cl)cc1O2
14.73
15. O=c1cc(-c2ccccc2)oc2ccc3ccccc3c12
14.73
16. C[C@@H](O)[C@H]1C(=O)N2C(C(=O)O)=C(S[C@@H]3CN[C@H](C(=O)N(C)C)C3)[C@H](C)[C@H]12
9.33
17. CN1C(=O)CN=C(c2ccccc2)c2cc(Cl)ccc21
7.17
18. C[C@@H]1CC[C@H]2[C@@H](C)C(=O)O[C@@H]3O[C@@]4(C)CC[C@@H]1[C@]32OO4
7.67
